Could you please report measured inhibition in vivo at 30 mg/kg for the items listed next?
System: Rattus norvegicus
Assay: Percent inhibition value on the Sephadex-induced lung eosinophilia model at an intraperitoneal (ip) dose of 30 mg/kg
Type: functional

I have this molecule here, `c1nc2nc(NC3CCCCC3)nc(NC3CCCCC3)n2n1` , and I need its recorded inhibition in vivo at 30 mg/kg. 1%

Could you do the same for `Cn1cnc2nc(-c3ccc(C#N)cc3)nn2c1=S` , please? 79%

Now consider `Cn1cnc2ncnc-2c1S` . 9%

----------
Answer each item with its documented inhibition in vivo at 30 mg/kg.
Tested on: Rattus norvegicus
Assay: Percent inhibition value on the Sephadex-induced lung eosinophilia model at an intraperitoneal (ip) dose of 30 mg/kg
Assay type: functional
Reply numerically in %, unit not repeated.

Form field: reported inhibition in vivo at 30 mg/kg of `CCOc1ncnc2ncnn12` 6

Entry to check: `Cn1cnc2nc(-c3ccccc3)nn2c1=S` -1

Request: `CCCCn1cnc2ncnn2c1=S` 23

For `Cn1c(-c2ccccc2)nc2ncnn2c1=S` then? 29

Next compound: `CSc1nc(N)nc2ncnn12` -29

Entry `Cn1cnc2ncnn2c1=S` please 69

Similarly, `CNc1nc(NC)n2ncnc2n1` ? 38

// repeat for `CCOC(=O)C(=O)Nc1nc2ncn(C)c(=S)n2n1` and report -2

For `Cn1cnc2nncc-2c1S` then? -13

Follow-up entry: `Cn1cnc2nc(-c3ccc(Cl)cc3)nn2c1=S` 92

Follow-up item: `CCCn1cnc2ncnn2c1=S` 49

Likewise for `Cn1cnc2ncnn2c1=O` ? 17

Again, but for `CSc1nc(N)n2ncnc2n1` -7

Entry `Cn1cnc2ccccc2c1=S` please 22

Let us now turn to `Cc1nc2ncnn2c(=S)n1C` 18

Try this compound too: `CNC(=S)n1nc(SC)nc1N` 54
